system: Staphylococcus aureus; assay: Antibacterial activity against methicillin resistant Staphylococcus aureus clinical isolate 20-34 assessed as inhibition of bacterial growth incubated for 24 hrs by CLSI protocol based broth microdilution method; type: functional
observed.property: MIC

Sample C[C@H]1COc2c(N3CCN(C)CC3)c(F)cc3c(=O)c(C(=O)O)cn1c23 [LEVOFLOXACIN ANHYDROUS] — what was its MIC?
16 µg/mL

###

MIC for assorted molecules
system: Streptococcus pneumoniae; test: Antibacterial activity against penicillin susceptible Streptococcus pneumoniae clinical isolate 20-1 assessed as inhibition of bacterial growth incubated for 24 hrs by CLSI protocol based broth microdilution method; type: functional

Look over these answered cases.
molecule | tgt | MIC
CN[C@H](CC(C)C)C(=O)N[C@H]1C(=O)N[C@@H](CC(N)=O)C(=O)N[C@H]2C(=O)N[C@H]3C(=O)N[C@H](C(=O)N[C@H](C(=O)O)c4cc(O)cc(O)c4-c4cc3ccc4O)[C@H](O)c3ccc(c(Cl)c3)Oc3cc2cc(c3O[C@@H]2O[C@H](CO)[C@@H](O)[C@H](O)[C@H]2O[C@H]2C[C@](C)(NCCCc3cn(Cc4ccc(Cl)c(Cl)c4)nn3)[C@H](O)[C@H](C)O2)Oc2ccc(cc2Cl)[C@H]1O | Streptococcus pneumoniae | ≤ 0.03 µg/mL
CN[C@H](CC(C)C)C(=O)N[C@H]1C(=O)N[C@@H](CC(N)=O)C(=O)N[C@H]2C(=O)N[C@H]3C(=O)N[C@H](C(=O)N[C@H](C(=O)O)c4cc(O)cc(O)c4-c4cc3ccc4O)[C@H](O)c3ccc(c(Cl)c3)Oc3cc2cc(c3O[C@@H]2O[C@H](CO)[C@@H](O)[C@H](O)[C@H]2O[C@H]2C[C@](C)(NCCCc3cn(C4CN(C(c5ccccc5)c5ccccc5)C4)nn3)[C@H](O)[C@H](C)O2)Oc2ccc(cc2Cl)[C@H]1O | Streptococcus pneumoniae | ≤ 0.03 µg/mL

API: value(readout= MIC, system= Streptococcus pneumoniae, query= CN[C@H](CC(C)C)C(=O)N[C@H]1C(=O)N[C@@H](CC(N)=O)C(=O)N[C@H]2C(=O)N[C@H]3C(=O)N[C@H](C(=O)N[C@H](C(=O)NCCCc4cn(Cc5ccc(Cl)c(Cl)c5)nn4)c4cc(O)cc(O)c4-c4cc3ccc4O)[C@H](O)c3ccc(c(Cl)c3)Oc3cc2cc(c3O[C@@H]2O[C@H](CO)[C@@H](O)[C@H](O)[C@H]2O[C@H]2C[C@](C)(N)[C@H](O)[C@H](C)O2)Oc2ccc(cc2Cl)[C@H]1O )
≤ 0.015 µg/mL

The measurements presented in this section are drawn from ChEMBL document CHEMBL5518226.
